# TESTED TARGET: Diacylglycerol lipase-beta (Mus musculus) (UniProt Q91WC9)
# Sequence (Q91WC9 whole entry, looked up): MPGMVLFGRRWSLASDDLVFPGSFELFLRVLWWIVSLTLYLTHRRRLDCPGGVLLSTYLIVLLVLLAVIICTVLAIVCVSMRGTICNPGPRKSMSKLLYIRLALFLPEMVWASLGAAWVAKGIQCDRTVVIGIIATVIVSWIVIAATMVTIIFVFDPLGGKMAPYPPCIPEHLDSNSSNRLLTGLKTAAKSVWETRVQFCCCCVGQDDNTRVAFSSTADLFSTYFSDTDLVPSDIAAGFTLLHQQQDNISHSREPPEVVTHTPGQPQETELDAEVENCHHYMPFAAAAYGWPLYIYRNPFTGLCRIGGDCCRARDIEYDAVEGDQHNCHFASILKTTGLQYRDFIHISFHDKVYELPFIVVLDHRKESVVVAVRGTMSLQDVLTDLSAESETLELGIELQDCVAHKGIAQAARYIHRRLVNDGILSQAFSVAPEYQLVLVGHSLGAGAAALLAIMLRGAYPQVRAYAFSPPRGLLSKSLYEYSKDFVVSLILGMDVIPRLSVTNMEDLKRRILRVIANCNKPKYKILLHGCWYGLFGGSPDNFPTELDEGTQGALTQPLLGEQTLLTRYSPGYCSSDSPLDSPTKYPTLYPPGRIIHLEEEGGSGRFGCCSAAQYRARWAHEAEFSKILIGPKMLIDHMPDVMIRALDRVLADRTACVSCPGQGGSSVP
# TEST: mouse DAGLb substrate turnover inhibition – biochemical, LC-MS, overexpressed mouse DAGLb (AID 602415)
# CONDITION SET: HEK293T membranes overexpressing mDAGLb, SAG turnover LC-MS; at 10 µM; active compounds read low
Overview of recorded substrate turnover for various molecules
Quick note: give the figure in %, leave out the unit.

Use the examples below as a reference point.
{"columns": ["MOLECULE", "TESTED TARGET", "MEASURED NUMBER"],
 "data": [
  ["Cc1cc(N(CCO)CCO)ccc1N=Nc1cc(F)ccc1F", "Diacylglycerol lipase-beta (Mus musculus) (UniProt Q91WC9)", 69],
  ["O=[N+]([O-])c1ccccc1NN=Cc1c[nH]c2ccccc12", "Diacylglycerol lipase-beta (Mus musculus) (UniProt Q91WC9)", 80],
  ["COc1cc(/C=C2\\SC(=O)N(c3ccccc3Cl)C2=O)cc([N+](=O)[O-])c1O", "Diacylglycerol lipase-beta (Mus musculus) (UniProt Q91WC9)", 61],
  ["NC(=O)CC(NC(=O)c1ccc(Br)cc1)c1ccc(NCCc2ccc(F)cc2)c([N+](=O)[O-])c1 (stereo not given)", "Diacylglycerol lipase-beta (Mus musculus) (UniProt Q91WC9)", 70],
  ["Cc1ccc(C2C(/C=C3/SC(=S)NC3=O)=C(c3cccs3)Oc3ccccc32)cc1 (stereo not given)", "Diacylglycerol lipase-beta (Mus musculus) (UniProt Q91WC9)", 35],
  ["COc1cccc(C(=O)NNc2c3ccccc3nc3ccccc23)c1", "Diacylglycerol lipase-beta (Mus musculus) (UniProt Q91WC9)", 71]
]}

# get_value(readout= substrate turnover, system= Diacylglycerol lipase-beta (Mus musculus) (UniProt Q91WC9)) for O=[N+]([O-])c1ccc(C=NNc2ccc3ccccc3c2)o1
67

# get_value(readout= substrate turnover, system= Diacylglycerol lipase-beta (Mus musculus) (UniProt Q91WC9)) for C/C(C/C(C)=C1/SC(=S)NC1=O)=C1\SC(=S)NC1=O
22

# get_value(readout= substrate turnover, system= Diacylglycerol lipase-beta (Mus musculus) (UniProt Q91WC9)) for O=C1C(NS(=O)(=O)c2cccs2)=C(N2CCN(c3cccc(Cl)c3)CC2)C(=O)c2ccccc21
81

# get_value(readout= substrate turnover, system= Diacylglycerol lipase-beta (Mus musculus) (UniProt Q91WC9)) for CN(C)c1ccc(N=Nc2ccc(S(=O)(=O)O)cc2)c2ccccc12
66
